- System name: human CGT (ceramide galactosyltransferase), CHO/CGT lysate (Homo sapiens)
- Construct: Full-length human CGT cDNA was cloned into the BamH1/Xho1 site of pcDNA3.1 (+); expressed in transfected cells; host or cells: Chinese hamster ovary (CHO) cells; lysate prepared with M-PER
- Sequence (Q16880 21-541): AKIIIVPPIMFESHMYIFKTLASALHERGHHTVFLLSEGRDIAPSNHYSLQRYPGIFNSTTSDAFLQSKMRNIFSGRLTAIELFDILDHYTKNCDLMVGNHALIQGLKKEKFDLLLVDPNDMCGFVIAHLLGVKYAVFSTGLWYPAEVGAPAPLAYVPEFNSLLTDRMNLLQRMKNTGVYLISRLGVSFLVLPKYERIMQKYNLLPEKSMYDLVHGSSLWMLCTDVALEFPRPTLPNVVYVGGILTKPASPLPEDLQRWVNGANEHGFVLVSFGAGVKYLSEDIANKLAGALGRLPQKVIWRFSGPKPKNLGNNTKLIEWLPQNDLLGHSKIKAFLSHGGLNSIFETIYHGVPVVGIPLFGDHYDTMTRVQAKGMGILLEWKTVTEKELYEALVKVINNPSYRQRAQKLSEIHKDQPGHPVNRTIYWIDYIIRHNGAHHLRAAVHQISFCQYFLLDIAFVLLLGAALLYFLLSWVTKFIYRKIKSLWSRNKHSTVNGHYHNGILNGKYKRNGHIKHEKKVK
- Procedure summary: CGT enzyme assay, LC-MS/MS readout (Table 1 ranges without asterisk)
- Type: biochemical
- Experimental setup: LC-MS/MS method (range without asterisk)
- Method: Full-length human CGT cDNA was cloned into the BamH1/Xho1 site of pcDNA3.1 (+) mammalian expression vector (V90-20, Invitrogen, Carlsbad, Calif.) and the plasmid was transfected into Chinese hamster ovary (CHO) cells. […] Protein concentration was determined using a Pierce BCA protein assay kit (ThermoFisher Scientific). […]
Where a name gives a salt, the structure may show the parent alone.
Measurement name: IC50

{"columns": ["Compound", "Measurement name", "Observed result"],
 "data": [
  ["NC1CC2CCC(C1)N2C(=O)[C@@H](NS(=O)(=O)c1ccc(OCC2CCCCC2)cc1)C(F)(F)c1ccc(Br)cc1 (stereo partly drawn) [Compound 12-1, trifluoroacetate]", "IC50", "10 to 30 µM"],
  ["CC(C)c1ccc2cc(S(=O)(=O)N[C@@H](C(=O)N3C4CCC3CC(N)C4)C(F)(F)c3ccc(Br)cc3)ccc2c1 (stereo partly drawn) [Compound 16-2, trifluoroacetate]", "IC50", "30 to 100 µM"],
  ["NC1CC2CCC(C1)N2C(=O)C(NS(=O)(=O)c1ccc(-c2ccc(F)cc2)nc1)C(F)(F)c1ccc(Br)cc1 (stereo not drawn) [Compound 199]", "IC50", "30 to 100 µM"],
  ["CC(C)Oc1ccc2cc(S(=O)(=O)N[C@H](C(=O)N3C4CCC3CC(N(C)C)C4)C(F)(F)c3ccc(Br)cc3)ccc2c1 (stereo partly drawn) [Compound 21-1]", "IC50", "10 to 30 µM"],
  ["NC1CC2CCC(C1)N2C(=O)C(NC(=O)C(=O)c1ccc(-c2ccc(F)cc2)cn1)C(F)(F)c1ccc(Br)cc1 (stereo not drawn) [Compound 14]", "IC50", "30 to 100 µM"]
]}

Consider the compound shown here: NC1CC2CCC(C1)N2C(=O)[C@H](NS(=O)(=O)c1ccc(OCC2CCCC2)cc1)C(F)(F)c1ccc(Br)cc1 (stereo partly drawn) [Compound 20-2] What is its recorded IC50?
10 to 30 µM
